Target: Cytochrome P450 1A2 (Homo sapiens)
Sequence (P05177 whole entry): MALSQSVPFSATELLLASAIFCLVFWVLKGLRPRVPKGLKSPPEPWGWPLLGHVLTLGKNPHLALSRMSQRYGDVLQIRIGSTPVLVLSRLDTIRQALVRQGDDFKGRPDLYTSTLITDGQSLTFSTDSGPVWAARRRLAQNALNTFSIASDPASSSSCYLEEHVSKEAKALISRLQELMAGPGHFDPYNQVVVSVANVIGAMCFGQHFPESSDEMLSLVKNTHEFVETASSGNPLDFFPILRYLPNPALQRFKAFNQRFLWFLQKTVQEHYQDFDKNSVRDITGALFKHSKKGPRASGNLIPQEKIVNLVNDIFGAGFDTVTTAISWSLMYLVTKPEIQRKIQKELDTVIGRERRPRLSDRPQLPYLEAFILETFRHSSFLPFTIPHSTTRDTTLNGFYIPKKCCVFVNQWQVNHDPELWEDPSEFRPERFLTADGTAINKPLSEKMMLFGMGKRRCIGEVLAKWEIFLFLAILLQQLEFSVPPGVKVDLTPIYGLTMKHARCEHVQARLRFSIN
Test: Inhibition of human CYP1A2 expressed in yeast microsomal membranes using 3-cyano-7-ethoxycoumarin as substrate measured after 10 mins by fluorescence assay
Type: ADME, cell membranes, Microsomal Membrane
Entries and their measured pIC50 follow.
// scale note: pIC50 = -log10(conc_M); give the bare number

CHEMICAL_STRING | TARGET_OF_ASSAY | pIC50
COc1cccc(/C=C/C(=O)c2ccncc2)c1 | Cytochrome P450 1A2 (Homo sapiens) | 7.70
CCOc1cc(/C=C/C(=O)c2ccncc2)cc(OC)c1OC | Cytochrome P450 1A2 (Homo sapiens) | 5.88
COc1ccc(/C=C/C(=O)c2ccncc2)cc1OC | Cytochrome P450 1A2 (Homo sapiens) | 6.92
COc1ccc(/C=C/C(=O)c2ccncc2)cc1 | Cytochrome P450 1A2 (Homo sapiens) | 4.92
COc1ccc(/C=C/C(=O)c2ccncc2)c(OC)c1OC | Cytochrome P450 1A2 (Homo sapiens) | 6.98

Query :: Provide pIC50 value for the following molecule: "O=C(/C=C/c1ccc2c(c1)OCO2)c1ccncc1"
Result :: 5.82

Query :: Provide pIC50 value for the following molecule: "CCOc1cc(/C=C/C(=O)c2ccncc2)cc(OCC)c1OCC"
Result :: 5.92

---

molecular target: Cytochrome P450 1B1 (Homo sapiens, UniProt Q16678); assay: Inhibition of human CYP1B1 expressed in yeast microsomal membranes using 7-ethoxyresorufin as substrate measured after 10 mins by fluorescence assay; type: cell membranes
Sequence (Q16678 whole entry): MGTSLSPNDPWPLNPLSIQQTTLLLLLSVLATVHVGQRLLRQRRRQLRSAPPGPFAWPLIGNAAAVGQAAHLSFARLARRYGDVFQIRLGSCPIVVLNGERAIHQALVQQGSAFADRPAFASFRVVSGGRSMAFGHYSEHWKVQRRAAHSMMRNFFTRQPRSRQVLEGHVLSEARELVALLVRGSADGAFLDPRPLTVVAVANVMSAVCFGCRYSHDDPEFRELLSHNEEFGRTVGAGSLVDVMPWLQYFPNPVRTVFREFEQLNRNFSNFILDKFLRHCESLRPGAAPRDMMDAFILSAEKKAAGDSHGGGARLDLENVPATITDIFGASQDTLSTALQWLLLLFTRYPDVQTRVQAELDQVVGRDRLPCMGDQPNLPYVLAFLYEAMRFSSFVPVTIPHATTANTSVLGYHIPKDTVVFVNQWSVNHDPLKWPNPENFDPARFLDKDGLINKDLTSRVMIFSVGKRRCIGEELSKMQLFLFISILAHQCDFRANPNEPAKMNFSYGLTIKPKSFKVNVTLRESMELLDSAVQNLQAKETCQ
QUANTITY: IC50 (nM)
Write the value in nM as a bare number.

Query :: Provide IC50 value for the following compound: "CCOc1cc(/C=C/C(=O)c2ccncc2)cc(OCC)c1OCC"
Result :: 8620

Query :: Provide IC50 value for the following compound: "COc1ccc(/C=C/C(=O)c2ccncc2)cc1OC"
Result :: 170

Query :: Provide IC50 value for the following compound: "COc1cc(/C=C/C(=O)c2ccncc2)cc(OC)c1OC"
Result :: 5210

Query :: Provide IC50 value for the following compound: "COc1cc(/C=C/C(=O)c2ccncc2)cc(OC)c1"
Result :: 41

Query :: Provide IC50 value for the following compound: "COc1ccc(/C=C/C(=O)c2ccncc2)cc1"
Result :: 7000

Query :: Provide IC50 value for the following compound: "COc1ccc(/C=C/C(=O)c2ccncc2)c(OC)c1OC"
Result :: 32
